These entries and their values trace back to patent US20210382058A1.

Assign GI50 to each entry below.
# Tested on: NCI-60 cancer cell lines
# PROTOCOL: NCI-60 cancer cell line drug screen (GI50, MGM)
# Assay type: cell-based, human
# MEASUREMENT CONDITIONS: Homo sapiens, UACC-257, Melanoma, UACC-257; read-out: Antiproliferative Activities [GI50 (μM)]
Numbers only, in µM.

These recorded examples may help you get a feel for the data.
{"SUBSTANCE SMILES": "COc1cc2c(cc1O)-c1c(c3ccc([N+](=O)[O-])cc3c(=O)n1CCCN1CCOCC1)C2=O", "SUBJECT OF TEST": "NCI-60 cancer cell lines", "GI50 (µM)": 0.48}
{"SUBSTANCE SMILES": "COc1cnc2c(c1)C(=O)c1c-2n(CCCN2CCCC2)c(=O)c2cc([N+](=O)[O-])ccc12", "SUBJECT OF TEST": "NCI-60 cancer cell lines", "GI50 (µM)": 0.18}
{"SUBSTANCE SMILES": "COc1cnc2c(c1)C(=O)c1c-2n(CCCNC(C)C)c(=O)c2cc(F)ccc12", "SUBJECT OF TEST": "NCI-60 cancer cell lines", "GI50 (µM)": 0.47}
{"SUBSTANCE SMILES": "COc1ccc2c(c1)C(=O)c1c-2n(CCCN2CCOCC2)c(=O)c2ccccc12", "SUBJECT OF TEST": "NCI-60 cancer cell lines", "GI50 (µM)": 6.6}
{"SUBSTANCE SMILES": "COc1cc2c(cc1O)-c1c(c3ccc([N+](=O)[O-])cc3c(=O)n1CCCN)C2=O", "SUBJECT OF TEST": "NCI-60 cancer cell lines", "GI50 (µM)": 1.57}

Record GI50 for all entries; do not skip any.
1. COc1cc2c(cc1O)-c1c(c3ccc([N+](=O)[O-])cc3c(=O)n1CCCn1ccnc1)C2=O
2. CN(C)CCCn1c2c(c3ccc(-c4ccn[nH]4)cc3c1=O)C(=O)c1ccccc1-2

[reply]
1: 25.3; 2: 12.3

###

# Test system: NCI-60 cancer cell lines
# PROTOCOL: NCI-60 cancer cell line drug screen (GI50, MGM)
# Assay type: cell-based, human
# MEASUREMENT CONDITIONS: Homo sapiens, UACC-257, Melanoma, UACC-257; read-out: Antiproliferative Activities [GI50 (μM)]
ENDPOINT LABEL: GI50 (µM)
One number for each entry, in µM.

{"COMPOUND": "CNCCCn1c2c(c3ccc(Cl)cc3c1=O)C(=O)c1cc(OC)cnc1-2 [Compound 3]", "ENDPOINT LABEL": "GI50", "UNIT OF MEASURE": "µM", "ENDPOINT RESULT": 2.24}
{"COMPOUND": "O=C1c2ccccc2-c2c1c1ccccc1c(=O)n2CCCNCCO [Compound 13]", "ENDPOINT LABEL": "GI50", "UNIT OF MEASURE": "µM", "ENDPOINT RESULT": 1.18}
{"COMPOUND": "CN(C)CCCn1c2c(c3cccnc3c1=O)C(=O)c1ccccc1-2 [Compound 20]", "ENDPOINT LABEL": "GI50", "UNIT OF MEASURE": "µM", "ENDPOINT RESULT": 2.02}
{"COMPOUND": "CNCCCn1c2c(c3ccc([N+](=O)[O-])cc3c1=O)C(=O)c1cc(OC)cnc1-2 [Compound 10]", "ENDPOINT LABEL": "GI50", "UNIT OF MEASURE": "µM", "ENDPOINT RESULT": 0.18}
{"COMPOUND": "CNCCCn1c2c(c3ccc(F)cc3c1=O)C(=O)c1cc(OC)cnc1-2 [Compound 6]", "ENDPOINT LABEL": "GI50", "UNIT OF MEASURE": "µM", "ENDPOINT RESULT": 0.49}
{"COMPOUND": "COc1cnc2c(c1)C(=O)c1c-2n(CCCNC2=NCCS2)c(=O)c2cc([N+](=O)[O-])ccc12 [Compound 12]", "ENDPOINT LABEL": "GI50", "UNIT OF MEASURE": "µM", "ENDPOINT RESULT": 0.58}
{"COMPOUND": "CN(C)CCCn1c2c(c3ccc(N4CCNCC4)cc3c1=O)C(=O)c1ccccc1-2 [Compound 25]", "ENDPOINT LABEL": "GI50", "UNIT OF MEASURE": "µM", "ENDPOINT RESULT": 1.69}

[ask] Retrieve GI50 measured for COc1cnc2c(c1)C(=O)c1c-2n(CCCNCCN2CCOCC2)c(=O)c2cc([N+](=O)[O-])ccc12 [Compound 11] and print it.
[reply] 0.59

###

# Test system: MYC protein expression in MCF-7 breast cancer cells
# PROTOCOL: Western blotting of MYC protein level in MCF-7 cells
# Assay type: cell-based, human
# MEASUREMENT CONDITIONS: Homo sapiens, MCF7; western blotting, MCF-7 cells, 0.5, 1, 2, and 4 μM, 24 hours; read-out: MYC Inhibition
ENDPOINT LABEL: minimal effective concentration (µM)
Give bare numbers, in µM.

Below: 3 molecules and their reported minimal effective concentration.
{"SUBSTANCE SMILES": "COc1cc2c3c(n(CCCN)c(=O)c2cc1OC)-c1cc2c(cc1C3=O)OCO2", "UNIT OF MEASURE": "µM", "minimal effective concentration": 2}
{"SUBSTANCE SMILES": "COc1cc2c3c(n(CCCNCCN)c(=O)c2cc1OC)-c1cc2c(cc1C3=O)OCO2", "UNIT OF MEASURE": "µM", "minimal effective concentration": 4}
{"SUBSTANCE SMILES": "COc1cc2c3c(n(CCCN4CCN(C)CC4)c(=O)c2cc1OC)-c1cc2c(cc1C3=O)OCO2", "UNIT OF MEASURE": "µM", "minimal effective concentration": 4}

Below are 2 molecules. Give each one its minimal effective concentration.
1. COc1cc2c(cc1O)-c1c(c3ccc([N+](=O)[O-])cc3c(=O)n1CCCN)C2=O
2. COc1cc2c3c(n(CCCN(C)C)c(=O)c2cc1OC)-c1cc2c(cc1C3=O)OCO2

[reply]
1: 4; 2: 2

###

Field: log10 of GI50. Provide a value for each of the molecules that follow.
# System: NCI-60 cancer cell lines
# PROTOCOL: NCI-60 cancer cell line drug screen (GI50, MGM)
# Type: cell-based, human
# MEASUREMENT CONDITIONS: Homo sapiens, MCF7, Breast Cancer, MCF7; read-out: Antiproliferative Activities [GI50 (μM)]
Log scale reminder: GI50 in µM, then log10 taken.

The examples below pair each entry with its known result.
{"MOLECULE": "COc1cc2c(cc1O)-c1c(c3ccc([N+](=O)[O-])cc3c(=O)n1CCCn1ccnc1)C2=O [Compound 37]", "log10 of GI50": -1.10}
{"MOLECULE": "CNCCCn1c2c(c3ccc([N+](=O)[O-])cc3c1=O)C(=O)c1cc(OC)cnc1-2 [Compound 10]", "log10 of GI50": -2.00}
{"MOLECULE": "COc1ccc2c(c1)C(=O)c1c-2n(CCCN2CCOCC2)c(=O)c2ccccc12 [Compound 19]", "log10 of GI50": -0.70}
{"MOLECULE": "CN(C)CCCn1c2c(c3ccc(N4CCNCC4)cc3c1=O)C(=O)c1ccccc1-2 [Compound 25]", "log10 of GI50": -0.52}
{"MOLECULE": "CNCCCn1c2c(c3ccc(Cl)cc3c1=O)C(=O)c1cc(OC)cnc1-2 [Compound 3]", "log10 of GI50": -1.30}

Next item in the queue.
[ask] Look up and state reported log10 of GI50 for CN(C)CCCn1c2c(c3cccnc3c1=O)C(=O)c1ccccc1-2 [Compound 20]
[reply] -0.43

###

Please provide measured GI50 for the entries that follow.
# Tested on: NCI-60 cancer cell lines
# PROTOCOL: NCI-60 cancer cell line drug screen (GI50, MGM)
# Type: cell-based, human
# MEASUREMENT CONDITIONS: Homo sapiens, OVCAR-4, Ovarian Cancer, OVCAR-4; read-out: Antiproliferative Activities [GI50 (μM)]
Numbers only, in µM.

The following molecules have reported results that may help.
{"MOLECULE": "COc1ccc2c(c1)C(=O)c1c-2n(CCCN2CCOCC2)c(=O)c2ccccc12 [Compound 19]", "GI50 [µM]": 3.13}
{"MOLECULE": "COc1cnc2c(c1)C(=O)c1c-2n(CCCNC2=NCCS2)c(=O)c2cc([N+](=O)[O-])ccc12 [Compound 12]", "GI50 [µM]": 0.48}
{"MOLECULE": "CNCCCn1c2c(c3ccc(F)cc3c1=O)C(=O)c1cc(OC)cnc1-2 [Compound 6]", "GI50 [µM]": 0.42}
{"MOLECULE": "CN(C)CCCn1c2c(c3ccc(N4CCNCC4)cc3c1=O)C(=O)c1ccccc1-2 [Compound 25]", "GI50 [µM]": 0.34}

Hello, I would appreciate it if you could give GI50 for each entry below.
1. COc1cnc2c(c1)C(=O)c1c-2n(CCCNCCN2CCOCC2)c(=O)c2cc([N+](=O)[O-])ccc12 [Compound 11]
2. COc1cc2c(cc1O)-c1c(c3ccc([N+](=O)[O-])cc3c(=O)n1CCCn1ccnc1)C2=O [Compound 37]
3. COc1cnc2c(c1)C(=O)c1c-2n(CCCNC(C)C)c(=O)c2cc(F)ccc12 [Compound 5]
4. CN(C)CCCn1c2c(c3ccc(-c4ccn[nH]4)cc3c1=O)C(=O)c1ccccc1-2 [Compound 30]

[reply]
1. 0.33
2. 1.41
3. 0.3
4. 1.45
